Target: T1, human NPRA (human, UniProt P16066 33-1061)
T1 sequence (looked up): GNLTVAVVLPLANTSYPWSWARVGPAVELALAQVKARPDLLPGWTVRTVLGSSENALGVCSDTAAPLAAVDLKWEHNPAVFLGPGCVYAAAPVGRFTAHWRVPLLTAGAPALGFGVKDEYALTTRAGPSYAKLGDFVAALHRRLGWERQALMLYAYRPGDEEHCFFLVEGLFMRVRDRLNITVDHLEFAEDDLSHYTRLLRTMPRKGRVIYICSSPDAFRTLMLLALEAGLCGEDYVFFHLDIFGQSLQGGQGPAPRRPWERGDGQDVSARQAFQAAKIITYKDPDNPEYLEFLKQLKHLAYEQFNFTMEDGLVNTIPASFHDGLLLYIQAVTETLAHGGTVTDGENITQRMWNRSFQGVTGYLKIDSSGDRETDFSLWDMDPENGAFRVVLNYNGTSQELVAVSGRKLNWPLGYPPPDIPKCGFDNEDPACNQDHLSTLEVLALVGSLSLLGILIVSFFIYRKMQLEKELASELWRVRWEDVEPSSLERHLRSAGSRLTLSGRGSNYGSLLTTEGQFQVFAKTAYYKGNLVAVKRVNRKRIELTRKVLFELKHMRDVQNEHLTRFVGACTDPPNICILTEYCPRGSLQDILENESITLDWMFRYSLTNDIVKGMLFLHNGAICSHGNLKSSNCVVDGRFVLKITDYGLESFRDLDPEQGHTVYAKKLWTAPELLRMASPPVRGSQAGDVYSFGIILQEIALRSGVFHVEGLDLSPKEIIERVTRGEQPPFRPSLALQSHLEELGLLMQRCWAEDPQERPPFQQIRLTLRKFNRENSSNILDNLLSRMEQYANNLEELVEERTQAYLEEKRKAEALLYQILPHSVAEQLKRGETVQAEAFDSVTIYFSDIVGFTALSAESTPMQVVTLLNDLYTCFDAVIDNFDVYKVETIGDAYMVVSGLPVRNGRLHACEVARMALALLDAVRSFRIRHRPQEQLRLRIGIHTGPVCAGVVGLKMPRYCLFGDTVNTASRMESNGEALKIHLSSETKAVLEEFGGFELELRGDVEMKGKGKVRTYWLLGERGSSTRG
Test: cell-based or functional assay
Numbered stars: 1 amine (or outer) side, 2 acyl side, 3 side chain; on linkers, the order of the positions; unused ones are H or OH. Bridge positions count the residues as written; N and C are the ends. Square brackets hold non-standard residues; d marks the D form. * marks the point of attachment. thioacetal = thioacetal linkage between two cysteines (intrachain bond at the bracketed Cys); C20 diacid = O=C(O)CCCCCCCCCCCCCCCCCCC(=O)*; γGlu = O=C(O)[C@H](CCC(=O)[*:2])N[*:1]; βAla = NCCC(=O)O
cGMP Assay (EC50, pM) w/Casein vs 600 pM: less than gives 1.0; not less than gives 0.0.

>>> assigned_label("{C20 diacid}-[γGlu]EKEKEKGEK[βAla]RSSCFGGRIDRIGHYSGLGCPSLRHGGPSSGAPPPS-NH2 (bridge 15-31 via thioacetal) [Example 63]")
0.0
>>> assigned_label("{C20 diacid}-[γGlu]EKEKEKGEK[βAla]RSSCFGGRIDRIGHYSGLGCPSFRHGGPSSGAPPPS-NH2 (bridge 15-31 via thioacetal) [Example 70]")
0.0
>>> assigned_label("XEKEKEKGEKERSSCFGGRIDRIGHYSGLGCPSFRHGGPSSGAPPPS (HOOC-(CH2)18-CO-(γGlu)-EKEKEKGEKERSS[CFGGRIDRIGHYSGLGC]PSFRHGGPSSGAPPPS-NH2; disulfide linkage between the bracketed Cys) [Example 49]")
1.0
>>> assigned_label("SXRRSSCFGGRIDRIGHQSGLGCPSFRHGGPSSGAPPPS (HOOC-(CH2)18-CO-(γGlu)-EKEKEKG-PEG24-S-4Pal-RRSS[CFGGRIDRIGHQSGLGC]PSFRHGGPSSGAPPPS-NH2; thioacetal linkage between the bracketed Cys) [Example 61]")
0.0
